Origin of the recorded values: paper PMC5540273

tested on: JNK3; construct: gene MAPK10; conditions: concentration: 1 μM, replicates: in singlicate; n = 1;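 also: KINOMEscan kinase panel screen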
Kindly supply the reported %Inh values for the records listed here.
Express the result in % but write the number alone.

GET /values?readout=%Inh&item= COc1cccc(C(=O)Nc2cccc(Oc3ccc4nc(NC(=O)C5CC5)cn4n3)c2)c1
0

Entry COc1ccc(-c2coc3ccc(-c4nnc(SCc5ccc(OC)c(C(F)(F)F)c5)o4)cc23)cc1 please
0

Entry O=C(NC1CCN(c2ccnc(Nc3ccc(F)cc3)n2)C1)c1cc2ccccc2s1 (centres unmarked) please
13

Entry COc1cc(Nc2nccc(-c3c(-c4cccc(NC(=O)c5c(F)cccc5F)c4)nn4ncccc34)n2)cc(OC)c1OC please
23

Entry Nc1ncc(-c2cccnc2)c2scc(-c3ccc4c(c3)CCN4C(=O)Cc3ccccc3)c12 please
9

Entry CCS(=O)(=O)c1ccc(OC)c(Nc2nccc(-c3c(-c4cccc(NC(=O)c5c(F)cccc5F)c4)nn4ncccc34)n2)c1 please
46

Entry CSc1cccc2c(-c3ccncn3)c(-c3ccc(F)cc3)nn12 please
75

Entry CC(=O)Nc1nc2cnc(Nc3cc(NC(=O)c4cccc(C5(C#N)CC5)c4Cl)ccc3C)nc2s1 please
0

* * *

tested on: TRKB; conditions: concentration: 1 μM, replicates: in singlicate; n = 1
Criterion: %Inh meeting or surpassing 30%. Met: true. Not met: false.

%Inh >= 30% for Cc1ccc(C)c(NC(=O)NC2CCN(c3ccnc(Nc4ccc(F)cc4)n3)C2)c1 (centres unmarked) ?
true

Entry CSc1cccc2c(-c3ccncn3)c(-c3ccc(F)cc3)nn12 please
false

Entry Cc1ccc(C(=O)N2CC[C@@H](O)C2)cc1-n1c(C)cc(OCc2ccc(F)cc2F)c(Br)c1=O please
false

Entry Cc1ccc(S(=O)(=O)Nc2ccc(Nc3nccc(Nc4cccc5[nH]ncc45)n3)cc2)cc1 please
true

Entry Cc1ccc(F)c(C(=O)Nc2cccc(-c3nn4ccccc4c3-c3ccnc(Nc4cccc(F)c4)n3)c2)c1F please
false

Entry O=C(NC1CCN(c2ccnc(Nc3ccc(F)cc3)n2)C1)c1cc2ccccc2s1 (centres unmarked) please
false

Entry COc1ccc(Nc2nccc(N3CCC(NC(=O)Nc4cccc(OC)c4)C3)n2)cc1 (centres unmarked) please
true

Entry COC(=O)Nc1nc2ccc(Oc3ccc(NC(=O)Nc4cc(C(F)(F)F)ccc4F)cc3)cc2n1C.Cl please
true

Entry Cn1cc(-c2ccc3c(c2)CCN3C(=O)Cc2cccc(F)c2)c2c(N)ncnc21 please
true

Entry c1ccc(Oc2ccc(Nc3ccnc4cc(-c5ccc(CNCCN6CCOCC6)o5)ccc34)cc2)nc1 please
true

Entry O=C(Nc1cccc(-c2nn3ncccc3c2-c2ccnc(Nc3ccccc3)n2)c1)c1c(F)cccc1F please
false

Entry c1ccc(-c2n[nH]cc2Nc2ccnc3ccccc23)nc1 please
false

Entry Cc1cccc(NC(=O)Nc2ccc(Oc3ncnc4ccn(C)c34)cc2)c1 please
true

Entry CC(=O)Nc1nc2cnc(Nc3cc(NC(=O)c4cccc(C5(C#N)CC5)c4Cl)ccc3C)nc2s1 please
false

Entry COc1cc(Nc2nccc(-c3c(-c4cccc(NC(=O)c5c(F)cccc5F)c4)nn4ccccc34)n2)cc(OC)c1OC please
true

Entry Cl.Cl.NCC(C(=O)Nc1cc(Br)c(-c2ccnc3[nH]ccc23)s1)c1ccccc1 (centres unmarked) please
false

Entry C[C@@H]1CC[C@@H](C(=O)Nc2ccccc2)CN1c1cc(-c2ccc3c(N)n[nH]c3c2)nc(N)n1 please
false

* * *

system: PAK3; settings: concentration: 1 μM, replicates: in singlicate; n = 1
assay.endpoint: %Inh
Answer with the value and then the unit.

GET /values?readout=%Inh&item= O=c1[nH]cc(-c2ccc(N3CCOCC3)cc2)c2sc(-c3cn[nH]c3)cc12 [GSK2276055]
0%

Entry COc1ccc(Nc2nccc(NCCNC(=O)c3cc4ccccc4s3)n2)cc1 [GSK1379896] please
2%

Entry CN(C)S(=O)(=O)c1cc(-c2ccc3nccc(-c4cccc(S(N)(=O)=O)c4)c3c2)cnc1N [GSK1669921] please
39%

Entry CSc1cccc2c(-c3ccncn3)c(-c3ccc(F)cc3)nn12 [GW514786] please
19%

Entry Oc1cc(Nc2ccnc3cc(I)ccc23)ccc1F [GW552771] please
17%

Entry O=C(Nc1cccc(-c2nn3ncccc3c2-c2ccnc(Nc3ccccc3)n2)c1)c1c(F)cccc1F [GSK198271] please
31%

Entry COc1cc(Nc2nccc(N3CCC(NC(=O)c4cc5ccccc5s4)C3)n2)cc(OC)c1OC (centres unmarked) [GSK1379760] please
9%

Entry FC(F)(F)c1ccc(/C=C/c2cncnc2Nc2ccc3[nH]c(Cc4ccccc4)nc3c2)cc1 [GW709199] please
0%

Entry CC(C)c1nc(-c2cccc(NS(=O)(=O)c3c(F)cccc3F)c2F)c(-c2ccnc(Nc3ccc(N4CCOCC4)nc3)n2)s1 [GSK2008607] please
93.3%

Entry COc1cccc(-c2ccc3c(NC(=O)C4CC4)n[nH]c3n2)c1 [SB-710903] please
1%

Entry CCCCc1nn2ncccc2c1-c1ccnc(Nc2ccc(N3CCN(C)CC3)cc2)n1 [GW684941] please
0%

Entry O=C(Nc1n[nH]c2cc(-c3ccoc3)ccc12)C1CC1 [SB-738481] please
18%

Entry c1ccc(Oc2ccc(Nc3ccnc4cc(-c5ccc(CNCCN6CCOCC6)o5)ccc34)cc2)nc1 [GW567145] please
3%

Entry CN(c1ccc(NC(=O)Nc2cc(C(F)(F)F)ccc2F)cc1)c1ccnc(Nc2ccc(S(N)(=O)=O)cc2)n1 [GW809893] please
23%

Entry CC(=O)Nc1nc2cnc(Nc3cc(NC(=O)c4cccc(C5(C#N)CC5)c4Cl)ccc3C)nc2s1 please
0%

Entry Cc1ccc(C)c(NC(=O)NC2CCN(c3ccnc(Nc4ccc(F)cc4)n3)C2)c1 (centres unmarked) [GSK1379720] please
14%

Entry Fc1ccc(-c2ncn(C3CCNCC3)c2-c2ccnc(Oc3ccc(-c4ccccc4)cc3)n2)cc1 [SB-245391] please
22%

Entry COc1ccc(CNC(=O)NC2CCN(c3ccnc(Nc4ccc(F)cc4)n3)CC2)cc1 [GSK1379788] please
6%

Entry COC(=O)Nc1nc2cc(Oc3ccc(NC(=O)Nc4cc(C(F)(F)F)ccc4F)cn3)ccc2[nH]1.Cl.Cl [GW681170] please
9%

Entry CCc1ccc(-c2ccc3c(c2)-c2c(cnn2C)S(=O)(=O)N3C)cc1 please
0%

Entry Cl.Cl.NCC(C(=O)Nc1cc(Br)c(-c2ccnc3[nH]ccc23)s1)c1ccccc1 (centres unmarked) [GSK1269851] please
27%

Entry Cl.c1ccc(-c2ccc3c(Nc4ccc5[nH]ccc5c4)ccnc3c2)nc1 [GW440138] please
0%

Entry CCn1c(-c2nonc2N)nc2c(C#CC(C)(C)O)nc(OC[C@H](N)c3ccccc3)cc21 [GSK943949] please
27%

Entry CN1CCN(Cc2cccc(-c3ccc4c(Nc5ccc(Oc6ccccc6)cc5)ccnc4c3)c2)CC1 [GW578342] please
29%

Entry COc1cc(Nc2nccc(N3CCC(NC(=O)Nc4cccc(C(C)=O)c4)C3)n2)cc(OC)c1OC (centres unmarked) [GSK1379753] please
100%

Entry COc1ccc(-c2coc3ccc(-c4nnc(SCc5ccc(OC)c(C(F)(F)F)c5)o4)cc23)cc1 please
22%

Entry NCCCC(NC(=O)c1cc(Br)c(-c2ccnc3[nH]ccc23)s1)c1ccccc1.O=C(O)C(F)(F)F.O=C(O)C(F)(F)F (centres unmarked) [GSK1287544] please
67%

Entry COc1cc(Nc2nccc(-c3c(-c4cccc(NC(=O)c5c(F)cccc5F)c4)nn4ncccc34)n2)cc(OC)c1OC [GSK327238] please
36%

Entry Cc1ccc(C(=O)N2CC[C@@H](O)C2)cc1-n1c(C)cc(OCc2ccc(F)cc2F)c(Br)c1=O please
0%

Entry O=C(O)C(F)(F)F.O=C(O)C(F)(F)F.O=c1[nH]ccc2nc(N[C@@H]3CCCNC3)nc(Nc3ccc(S(=O)(=O)N4CCOCC4)cc3)c12 [GSK2177277] please
100%

Entry CCn1c(-c2nonc2N)nc2c(C#CC(C)(C)O)ncc(OCCCCN)c21.O=C(O)C(F)(F)F.O=C(O)C(F)(F)F [GSK507274] please
49%

Entry O=C(NC1CCN(c2ccnc(Nc3ccc(F)cc3)n2)C1)c1cc2ccccc2s1 (centres unmarked) [GSK1379716] please
19%

* * *

tested on: PKN2; details: concentration: 1 μM, replicates: in singlicate; n = 1
Kindly supply the reported %Inh values for the records listed here.
Express the result in % but write the number alone.

GET /values?readout=%Inh&item= Cc1ccc(C)c(NC(=O)NC2CCN(c3ccnc(Nc4ccc(F)cc4)n3)C2)c1 (stereo not shown)
0

Entry Cc1ccc(S(=O)(=O)Nc2ccc(Nc3nccc(Nc4cccc5[nH]ncc45)n3)cc2)cc1 please
0

Entry c1ccc(Oc2ccc(Nc3ccnc4cc(-c5ccc(CNCCN6CCOCC6)o5)ccc34)cc2)nc1 please
0

Entry Cc1ccc(F)c(C(=O)Nc2cccc(-c3nn4ccccc4c3-c3ccnc(Nc4cccc(F)c4)n3)c2)c1F please
17
